# assayedSystem: 72 kDa type IV collagenase (Homo sapiens)
# Sequence (P08253 whole entry): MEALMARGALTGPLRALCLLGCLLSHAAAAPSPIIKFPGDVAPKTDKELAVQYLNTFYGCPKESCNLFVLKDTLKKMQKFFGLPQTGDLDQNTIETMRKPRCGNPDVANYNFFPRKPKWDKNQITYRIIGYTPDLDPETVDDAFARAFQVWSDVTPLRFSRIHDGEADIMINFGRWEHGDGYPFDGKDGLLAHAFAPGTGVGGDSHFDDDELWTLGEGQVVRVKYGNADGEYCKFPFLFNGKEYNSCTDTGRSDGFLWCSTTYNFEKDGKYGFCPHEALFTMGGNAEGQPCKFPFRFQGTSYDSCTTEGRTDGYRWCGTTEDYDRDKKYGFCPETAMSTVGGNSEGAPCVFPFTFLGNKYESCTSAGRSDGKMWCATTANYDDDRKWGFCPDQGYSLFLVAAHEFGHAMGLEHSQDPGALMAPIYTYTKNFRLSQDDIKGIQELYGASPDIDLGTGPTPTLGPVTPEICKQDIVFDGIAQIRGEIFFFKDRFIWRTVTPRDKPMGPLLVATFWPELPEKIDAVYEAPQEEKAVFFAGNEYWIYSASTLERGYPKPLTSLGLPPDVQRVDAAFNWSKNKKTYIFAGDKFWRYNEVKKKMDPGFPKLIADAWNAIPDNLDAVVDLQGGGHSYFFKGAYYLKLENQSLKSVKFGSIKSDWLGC
# assayMethodText: Inhibition of recombinant MMP-2 using succinylated gelatin as substrate incubated for 10 mins before addition of substrate measured after 60 mins by UV-Vis spectrophotometric analysis
pIC50: −log10 of the molar value.
reportedProperty: pIC50

CC(C)C[C@H](NC(=O)NCc1cccc2ccccc12)C(=O)NO = 3.26

Could you now consider this next molecule?
Field request: pIC50 | item: COc1ccccc1CNC(=O)N[C@@H](CC(C)C)C(=O)NO < 3.00

###

GI50 at 24 h values, listed per item
# assayMethodText: Cytotoxicity against mouse B16-BL6 cells assessed as cell growth inhibition after 24 hrs by MTT assay
# Assay type: cell-based

CC(C)C[C@H](NC(=O)NCc1cccc2ccccc12)C(=O)NO = > 500 µM
COc1cccc(CNC(=O)N[C@@H](CC(C)C)C(=O)NO)c1 = > 500 µM
CC(C)C[C@H](NC(=O)Nc1cccc2ccccc12)C(=O)NO = > 500 µM

Field request: GI50 at 24 h | item: CC(C)C[C@H](NC(=O)[C@@H](O)[C@H](N)Cc1ccccc1)C(=O)O > 500 µM

###

# assayedSystem: Aminopeptidase N (Homo sapiens)
# Sequence (P15144 whole entry): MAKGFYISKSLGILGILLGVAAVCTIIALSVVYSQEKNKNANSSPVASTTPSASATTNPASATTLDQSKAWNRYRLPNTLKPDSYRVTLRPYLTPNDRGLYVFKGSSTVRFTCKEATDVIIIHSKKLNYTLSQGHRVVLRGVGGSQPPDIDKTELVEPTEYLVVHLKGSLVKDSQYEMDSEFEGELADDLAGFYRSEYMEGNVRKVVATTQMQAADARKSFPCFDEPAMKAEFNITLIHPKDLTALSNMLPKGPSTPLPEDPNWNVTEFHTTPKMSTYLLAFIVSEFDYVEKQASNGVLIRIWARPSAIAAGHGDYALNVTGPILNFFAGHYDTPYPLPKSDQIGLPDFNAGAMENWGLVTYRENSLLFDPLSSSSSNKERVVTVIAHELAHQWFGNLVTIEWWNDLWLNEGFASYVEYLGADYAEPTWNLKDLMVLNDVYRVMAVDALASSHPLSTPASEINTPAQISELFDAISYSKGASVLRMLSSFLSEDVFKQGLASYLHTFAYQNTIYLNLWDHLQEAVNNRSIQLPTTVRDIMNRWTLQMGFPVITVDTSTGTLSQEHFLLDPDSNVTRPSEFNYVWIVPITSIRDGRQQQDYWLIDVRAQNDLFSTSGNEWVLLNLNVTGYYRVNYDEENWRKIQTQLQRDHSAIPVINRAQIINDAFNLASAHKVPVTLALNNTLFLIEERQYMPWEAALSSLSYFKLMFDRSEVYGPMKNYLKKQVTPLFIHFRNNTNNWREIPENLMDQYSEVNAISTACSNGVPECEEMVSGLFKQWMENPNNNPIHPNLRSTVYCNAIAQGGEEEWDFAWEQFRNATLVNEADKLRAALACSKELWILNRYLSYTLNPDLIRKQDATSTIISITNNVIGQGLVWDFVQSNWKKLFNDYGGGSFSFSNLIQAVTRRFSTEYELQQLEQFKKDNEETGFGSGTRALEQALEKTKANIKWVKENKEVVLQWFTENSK
# assayMethodText: Inhibition of APN in human ES2 cell surface assessed as inhibition of L-Leu-p-nitroanilide substrate hydrolysis incubated for 5 mins before substrate addition by UV-Vis spectrophotometric analysis
Each record is given 1 if its reported IC50 is strictly below 6 µM. Records at or above 6 µM are given -1.

Use the examples below as a reference point.
COc1ccc(NC(=O)N[C@@H](CC(C)C)C(=O)NO)cc1 = -1
COc1ccc(CNC(=O)N[C@@H](CC(C)C)C(=O)NO)cc1 = -1
CC(C)C[C@H](NC(=O)NCc1ccc(F)cc1)C(=O)NO = 1
Cc1ccc(CNC(=O)N[C@@H](CC(C)C)C(=O)NO)cc1 = 1
CC(C)C[C@H](NC(=O)NCc1cccc2ccccc12)C(=O)NO = 1

Here's the next entry for you.
Quick check: does CC(C)C[C@H](NC(=O)NCc1cccc(F)c1)C(=O)NO have IC50 under 6 µM? 1

###

IC50 values, listed per item
# assayedSystem: UniProt:P15145
# Sequence (P15145 whole entry): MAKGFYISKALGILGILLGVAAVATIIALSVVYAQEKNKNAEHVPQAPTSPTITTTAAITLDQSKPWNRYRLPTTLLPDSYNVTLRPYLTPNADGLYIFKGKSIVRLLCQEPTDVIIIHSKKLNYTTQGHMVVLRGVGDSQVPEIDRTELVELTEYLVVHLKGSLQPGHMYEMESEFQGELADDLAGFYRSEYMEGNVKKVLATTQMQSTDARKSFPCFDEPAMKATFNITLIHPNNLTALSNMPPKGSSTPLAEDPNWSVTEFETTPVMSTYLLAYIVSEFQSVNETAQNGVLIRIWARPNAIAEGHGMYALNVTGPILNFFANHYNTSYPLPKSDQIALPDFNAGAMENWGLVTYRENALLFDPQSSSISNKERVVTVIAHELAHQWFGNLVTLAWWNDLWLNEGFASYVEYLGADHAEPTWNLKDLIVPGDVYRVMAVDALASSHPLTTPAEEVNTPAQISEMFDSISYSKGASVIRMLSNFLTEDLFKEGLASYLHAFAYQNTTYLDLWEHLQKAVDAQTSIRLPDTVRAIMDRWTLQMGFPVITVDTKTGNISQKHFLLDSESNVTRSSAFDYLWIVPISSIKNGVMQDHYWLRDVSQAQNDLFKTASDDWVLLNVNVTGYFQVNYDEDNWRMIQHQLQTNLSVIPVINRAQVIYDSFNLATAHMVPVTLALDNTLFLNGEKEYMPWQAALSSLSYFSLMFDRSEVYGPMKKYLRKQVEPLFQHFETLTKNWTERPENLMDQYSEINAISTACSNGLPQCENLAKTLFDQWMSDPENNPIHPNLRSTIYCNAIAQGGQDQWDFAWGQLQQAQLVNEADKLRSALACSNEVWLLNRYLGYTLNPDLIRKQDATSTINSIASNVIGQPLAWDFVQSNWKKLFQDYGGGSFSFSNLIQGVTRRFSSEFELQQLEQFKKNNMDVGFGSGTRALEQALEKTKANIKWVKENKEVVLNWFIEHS
A number alone suffices; assume nM.

Reference set, count: 7
O=C(NCCCc1ccccc1)N[C@H](C(=O)NO)c1ccccc1 = 2200
COc1cccc(CNC(=O)N[C@@H](CC(C)C)C(=O)NO)c1 = 290
CC(C)C[C@H](NC(=O)NCc1cccc2ccccc12)C(=O)NO = 50
CC(C)C[C@H](NC(=O)NCc1cccs1)C(=O)NO = 660
O=C(NCc1ccc(F)cc1)N[C@H](C(=O)NO)c1ccccc1 = 5000
O=C(NCc1ccccc1)N[C@H](C(=O)NO)c1ccccc1 = 980
CC(C)C[C@H](NC(=O)NCc1cccc(F)c1)C(=O)NO = 690

Could you now consider this next molecule?
Field request: IC50 | item: CC(C)C[C@H](NC(=O)Nc1ccc(-c2ccccc2)cc1)C(=O)NO 2100

###

# assayMethodText: Cytotoxicity against human ES2 cells assessed as cell growth inhibition rate at 50 ug/ml after 24 hrs by MTT assay
# Type: cell-based
# conditionDetails: read-out: GI
inhibition at 24 h, 50 ug/ml values, listed per item
A number alone suffices; assume %.

Reference set, count: 2
CC(C)C[C@H](NC(=O)NCc1cccc(F)c1)C(=O)NO = 2.81
CC(C)C[C@H](NC(=O)NCc1ccc(F)cc1)C(=O)NO = 11.9

Could you now consider this next compound?
Field request: inhibition at 24 h, 50 ug/ml | item: COc1ccc(NC(=O)N[C@@H](CC(C)C)C(=O)NO)cc1 6.85

###

# assayedSystem: Aminopeptidase N (Mus musculus, UniProt P97449)
# Sequence (P97449 whole entry): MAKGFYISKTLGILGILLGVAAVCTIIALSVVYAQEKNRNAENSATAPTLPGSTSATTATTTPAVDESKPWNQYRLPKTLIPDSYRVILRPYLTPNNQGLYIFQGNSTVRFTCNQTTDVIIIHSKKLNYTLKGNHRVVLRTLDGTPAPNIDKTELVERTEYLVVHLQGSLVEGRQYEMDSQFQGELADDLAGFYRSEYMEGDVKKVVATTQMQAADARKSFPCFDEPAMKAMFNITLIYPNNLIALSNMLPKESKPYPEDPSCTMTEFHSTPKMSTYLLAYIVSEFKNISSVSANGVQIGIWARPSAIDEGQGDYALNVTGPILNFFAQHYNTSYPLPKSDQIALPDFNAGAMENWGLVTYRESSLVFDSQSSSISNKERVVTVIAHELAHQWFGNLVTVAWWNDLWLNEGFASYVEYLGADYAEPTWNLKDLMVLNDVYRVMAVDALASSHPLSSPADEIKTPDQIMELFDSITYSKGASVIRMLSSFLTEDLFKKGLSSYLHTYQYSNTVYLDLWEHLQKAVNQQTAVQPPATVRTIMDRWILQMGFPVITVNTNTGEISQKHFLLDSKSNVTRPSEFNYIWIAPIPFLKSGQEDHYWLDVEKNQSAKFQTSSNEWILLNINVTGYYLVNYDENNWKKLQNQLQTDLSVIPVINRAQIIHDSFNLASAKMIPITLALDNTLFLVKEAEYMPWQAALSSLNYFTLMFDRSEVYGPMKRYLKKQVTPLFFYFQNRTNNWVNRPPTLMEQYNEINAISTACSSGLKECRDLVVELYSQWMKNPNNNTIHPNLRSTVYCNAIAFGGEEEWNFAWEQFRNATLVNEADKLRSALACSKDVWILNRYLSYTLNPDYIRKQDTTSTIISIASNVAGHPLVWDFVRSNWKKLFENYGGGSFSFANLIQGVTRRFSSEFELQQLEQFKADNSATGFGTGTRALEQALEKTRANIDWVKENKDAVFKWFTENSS
reportedProperty: Ki (µM)
A number alone suffices; assume µM.

Field request: Ki | item: CC(C)C[C@H](NC(=O)[C@@H](O)[C@H](N)Cc1ccccc1)C(=O)O [UBENIMEX] 3.03

###

# assayedSystem: Aminopeptidase N (Sus scrofa)
pIC50: −log10 of the molar value.
# pIC50 >= 6 gives TRUE, anything below gives FALSE

Use the examples below as a reference point.
CC(C)C[C@H](NC(=O)Nc1ccccc1)C(=O)NO = FALSE
CC(C)C[C@H](NC(=O)NCCCc1ccccc1)C(=O)NO = FALSE
CSCC[C@H](NC(=O)NCCCc1ccccc1)C(=O)NO = FALSE
O=C(NCCCCc1ccccc1)N[C@H](C(=O)NO)c1ccccc1 = FALSE
CC(C)C[C@H](NC(=O)OCCCc1ccccc1)C(=O)NO = FALSE

API: above_or_equal(metric=pIC50, cutoff=6) for item COc1ccc(NC(=O)N[C@@H](CC(C)C)C(=O)NO)cc1 TRUE

API: above_or_equal(metric=pIC50, cutoff=6) for item COc1ccccc1CNC(=O)N[C@@H](CC(C)C)C(=O)NO TRUE

API: above_or_equal(metric=pIC50, cutoff=6) for item O=C(NCCCCc1ccccc1)N[C@@H](Cc1ccccc1)C(=O)NO FALSE

API: above_or_equal(metric=pIC50, cutoff=6) for item Cc1ccc(NC(=O)N[C@@H](CC(C)C)C(=O)NO)cc1 TRUE
